Numbers sourced from patent US10760052B2.

Biological target: mu opiate receptor (MOR) (Rattus norvegicus)
Construct: from tissue; host or cells: striatum (membrane preparation)
Assay type: biochemical
Settings: [35S]GTPγS binding to Gαo in striatal membranes; compound 1 μM
MEASURED_ATTRIBUTE: Concentration of FLNA-Binding Compound as Agonist 1 μM (%)
The reply should be a number in %, with the unit left off.

Inquiry: Which Concentration of FLNA-Binding Compound as Agonist 1 μM is reported for this compound? CC1CN(CC(O)COc2cccc(F)c2)CC(C)O1 (stereo not drawn) [Compound A0049]
Reply text: 370.3

Inquiry: Now this one: COc1ccc(N2CCN(CC(O)COC3CC(C)CCC3C(C)C)CC2)c(OC)c1 (stereo not drawn) [Compound A0012]
Reply text: 185.7

Inquiry: Now this one: COc1c2c(cc3c1C(CC(=O)c1ccncc1)[N+](C)(C)CC3)OCO2 (stereo not drawn) [Compound B0005]
Reply text: 110.4

Inquiry: Now this one: CC1CCC(C(C)C)C(OCC(O)Cn2cccc2)C1 (stereo not drawn) [Compound A0038]
Reply text: 234.5

Inquiry: Now this one: COc1ccc(C(=O)CC2c3c(cc4c(c3OC)OCO4)CC[N+]2(C)C)c(F)c1 (stereo not drawn) [Compound B0027]
Reply text: 266.9

Inquiry: Now this one: CC1CN(CC(O)COc2cccc(C(F)(F)F)c2)CC(C)O1 (stereo not drawn) [Compound A0051]
Reply text: 386.6

Inquiry: Now this one: CC1CCC(C(C)C)C(OCC(O)CN2CCN(CCN3CCOCC3)CC2)C1 (stereo not drawn) [Compound A0011]
Reply text: 287.5

Inquiry: Now this one: COc1ccc(CC(=O)CC2c3c(cc4c(c3OC)OCO4)CC[N+]2(C)C)c(OC)c1 (stereo not drawn) [Compound B0029]
Reply text: 210.3

Inquiry: Now this one: CC1CN(CC(O)COc2cc(F)cc(F)c2)CC(C)O1 (stereo not drawn) [Compound A0046]
Reply text: 354.1

###

Target: mu opiate receptor (MOR) (Rattus norvegicus, UniProt P33535)
Construct: from tissue; host or cells: striatum (membrane preparation)
Sequence (P33535 whole entry): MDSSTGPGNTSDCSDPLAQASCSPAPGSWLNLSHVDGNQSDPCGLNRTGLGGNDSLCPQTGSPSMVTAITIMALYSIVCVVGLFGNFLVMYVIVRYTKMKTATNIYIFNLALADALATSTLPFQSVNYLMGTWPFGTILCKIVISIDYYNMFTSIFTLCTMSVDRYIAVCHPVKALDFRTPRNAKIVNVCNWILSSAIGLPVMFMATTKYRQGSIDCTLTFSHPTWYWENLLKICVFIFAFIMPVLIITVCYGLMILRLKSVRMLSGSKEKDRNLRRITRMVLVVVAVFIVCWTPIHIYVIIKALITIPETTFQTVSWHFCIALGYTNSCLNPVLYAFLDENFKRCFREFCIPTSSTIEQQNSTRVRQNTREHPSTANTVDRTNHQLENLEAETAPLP
Type: biochemical
Assign [35S]GTPγS binding, FLNA-Binding Compound as Agonist at 1 μM + BFNA to each entry below.
The reply should be a number in %, with the unit left off.

Inquiry: Which [35S]GTPγS binding, FLNA-Binding Compound as Agonist at 1 μM + BFNA is reported for this molecule? O=C1CNC2(CCNCC2)N1Cc1ccccc1 [Compound C0114M]
Reply text: 35.9

Inquiry: Now this one: O=C1CN(Cc2ccccc2)C2(CCNCC2)N1 [Compound C0115M]
Reply text: 118.4

Inquiry: Now this one: COc1ccc(S(=O)(=O)N2CCOC23CCN(CC2CC2)CC3)cc1 [Compound C0090M]
Reply text: 41.0

Inquiry: Now this one: CC(=O)c1ccc(S(=O)(=O)N2CC(CN(C)C)OC23CCNCC3)cc1 (stereo not shown) [Compound C0118M]
Reply text: 79.2

Inquiry: Now this one: CCc1ccc(S(=O)(=O)N2CCOC23CCN(CC2CC2)CC3)cc1 [Compound C0135M]
Reply text: 113.3

Inquiry: Now this one: CC(=O)c1ccc(S(=O)(=O)N2CCC3(CC2)OCCN3S(=O)(=O)c2ccc(C(C)=O)cc2)cc1
Reply text: 19.0

Inquiry: Now this one: CC(=O)c1ccc(S(=O)(=O)N2C(Cc3c[nH]cn3)C(=O)NC23CCNCC3)cc1 (stereo not shown) [Compound C0119M]
Reply text: 35.1

Inquiry: Now this one: CC(=O)c1ccc(S(=O)(=O)N2CC(=O)NC23CCNCC3)cc1 [Compound C0086M]
Reply text: 152.3

Inquiry: Now this one: CS(=O)(=O)c1ccc(S(=O)(=O)N2CCOC23CCNCC3)cc1 [Compound C0116M]
Reply text: 152.0

Inquiry: Now this one: C[C@@H](NC(=O)[C@@H](N)Cc1ccc(O)cc1)C(=O)NCC(=O)N(C)[C@@H](Cc1ccccc1)C(=O)NCCO [DAMGO, reference compound]
Reply text: 53.2
